Every entry's value here was drawn from ChEMBL document CHEMBL4342471.

# Measurement protocol: Tmax in Sprague-Dawley rat at 30 mg/kg, iv administered as bolus dose measured up to 1440 mins by UPLC-QTOF/MS analysis
# Format: ADME, organism-based
# Assay setup: in vivo
Measured parameter: Tmax
# do not omit the unit; it follows the number

Query: I'd like to know its Tmax. The molecule in question is Cc1cc(-c2nc3sc4c(c3c(=O)[nH]2)CCN(C)C4)cc(C)c1OCCCCCC(=O)NO
Response: 7.2 min

====

# Measurement protocol: Tmax in Sprague-Dawley rat at 30 mg/kg, po measured up to 1440 mins by UPLC-QTOF/MS analysis
# Type: ADME, organism-based
# Assay setup: in vivo
Measured parameter: Tmax (h)
Kindly answer with a numeric value in h, unit omitted.

Query: Reported Tmax for Cc1cc(-c2nc3sc4c(c3c(=O)[nH]2)CCN(C)C4)cc(C)c1OCCCCCC(=O)NO : what is it?
Response: 1.53
